Foliar treatment phytotoxicity, Rice values for the molecules below.
Test system: rice
Assay: Phytotoxicity test for upland field crops (foliar treatment test)
Format: in vivo
Settings: 100 g ai/ha, Rice (7 days after treatment)
# answer = number (no unit)

QUERY: Given CON(Cc1nnn(C)n1)c1nc(C(F)(F)F)ccc1C(=O)Nc1nnnn1C , state its recorded Foliar treatment phytotoxicity, Rice.
RESULT: 5

QUERY: # iterate: Cn1nnnc1COc1nc(C(F)(F)F)ccc1C(=O)Nc1nnnn1C
RESULT: 6

QUERY: # iterate: Cc1nc(COCc2nc(C(F)(F)F)ccc2C(=O)Nc2nnnn2C)nn1C
RESULT: 4

QUERY: # iterate: Cn1nnnc1COCc1nc(C(F)(F)F)ccc1C(=O)Nc1nnnn1C
RESULT: 5

QUERY: # iterate: Cc1nc(COCc2nc(C(F)(F)F)ccc2C(=S)Nc2nnnn2C)nn1C
RESULT: 4

QUERY: # iterate: Cn1nnc(COCc2nc(C(F)(F)F)ccc2C(=O)Nc2nnnn2C)n1
RESULT: 3

QUERY: # iterate: Cn1nnc(COCc2nc(C(F)(F)F)ccc2C(=O)N(C(=O)c2ccccc2)c2nnnn2C)n1
RESULT: 6

The values you see were collected from patent US12495798B2.
